Hello, the source for this data is PubChem BioAssay (NCI), in case you need it.

- Tested on: MOLT-4 leukemia
- Protocol Details: NCI-60 one-dose screen, 48 h (100 = growth as untreated, 0 = no growth, -100 = all killed)
- Setup Conditions: 10 µM unless noted
This is part of a sample that, as a whole, favours compounds with a hit. Of some 83,000 tested, about 20% had one in any assay.
Parameter threshold = 30%. Response is Satisfied when growth meets or exceeds it, else Not satisfied.

Quick check: does O=C1C2CC=CCC2C(=O)N1CNc1ccc(Cl)cc1 (stereo not drawn) have growth greater than or equal to 30%?
Satisfied

Answer whether growth of O=C(Nc1cccc2[nH]c(C(F)(F)F)nc12)c1ccc(Br)cc1F is greater than or equal to 30%.
Not satisfied

Is the recorded value of growth equal to or greater than 30% for this molecule? CC(C)[C@H]1COC(=O)N1[C@@H]1C(=O)N([C@@H](CCC(=O)N2CCN(C3CCCC3)CC2)C(=O)N[C@@H]2CCCc3ccccc32)[C@@H]1/C=C/c1cccc(Br)c1
Not satisfied

Does the molecule COc1cc(-c2c3sc(=O)[nH]c3nc3c2c(=O)[nH]n3C(C)C)cc2c1OCO2 have recorded growth that is 30% or more?
Satisfied

# bool: growth of CC1=C(NCCN2CCCC2)C(=O)c2c(OCc3ccc(F)c(Cl)c3)cccc2C1=O >= 30%
Satisfied

# check: growth of CS(=O)(=O)c1c(Nc2ccccc2)n[nH]c1N is greater than or equal to 30%
Satisfied

Dear colleague, could you confirm whether O=C1Nc2c(ccc(Cl)c2Cl)/C1=C/c1cc(Br)c(O)c(Br)c1 has growth at or above 30%?
Satisfied

Determine whether measured growth meets or exceeds 30% for COc1cc2c(c(OC)c1OC)-c1ccc(N=NC(N)=S)c(=O)cc1[C@@H](NC(C)=O)CC2
Not satisfied

Entry C/C(Cc1ccc(Cl)cc1)=C(\c1ccc(OCCN2CCCCCC2)cc1)c1ccc(OC(=O)C2CCCCC2)cc1 : is its growth no less than 30%?
Not satisfied

Say whether COC(=O)[C@@H]1CC[C@]2(C)[C@H](CC[C@@H]3O[C@@]32C)[C@@]1(C)CC(=O)c1ccoc1 shows growth of 30% or more.
Satisfied

hey, is growth for this one >= 30%? O=[N+]([O-])c1cccc(C2CC(c3ccccc3)=Nc3ccccc3S2)c1 (stereo not drawn)
Satisfied

hey, is growth for this one >= 30%? COc1ccc(C2Nc3ccccc3-n3cccc32)cc1 (stereo not drawn)
Satisfied

I'd appreciate it if you could say whether C=CC[N+]1(CC)CCN=C1CCCCCCCCCCCCCCCCC (stereo not drawn) has growth at least equal to 30%.
Not satisfied

Could you tell me if the measured growth of CC#CC#Cc1cccc(=O)o1 reaches 30% or more?
Satisfied

Would you say CCCCCCCCCc1cc(CN2CCCCC2)c(O)c(CN2CCCCC2)c1 shows growth at minimum 30%?
Satisfied

Evaluate CCC(C)[C@@H]1NC(=O)[C@@H]2CCCN2C(=O)[C@H](Cc2ccccc2)NC(=O)[C@@H]2CCCN2C(=O)[C@H](Cc2ccccc2)NC(=O)[C@@H]2CCCN2C(=O)[C@H](Cc2ccccc2)NC1=O (stereo partly drawn) : growth at minimum 30%?
Satisfied

hey, is growth for this one >= 30%? Oc1ccc(Nc2nccc(-c3ccc4ccccc4c3)n2)cc1
Not satisfied

Reported growth at or above 30%? CCCCCCCCCCCCCCCCCCNC(=O)[C@H]1CSC(c2ccc(F)c(OC)c2)N1 (stereo partly drawn)
Not satisfied

Does growth meet or surpass 30% for Clc1ccc(-c2nnc(COc3ccccc3Cl)o2)cc1 ?
Satisfied

Decide: is the reported value of growth for CCCCCCCCCCCCCCCC(=O)OCC1OC(n2cnc3c(=S)nc(N)[nH]c32)C(OC(=O)CCCCCCCCCCCCCCC)C1OC(=O)CCCCCCCCCCCCCCC (stereo not drawn) equal to or greater than 30%?
Not satisfied

Determine whether measured growth meets or exceeds 30% for COc1ccc(-c2cc(-c3cccnc3)nc3sc4c(=O)n(-c5ccc(C)cc5)cnc4c23)cc1OC
Satisfied

Entry COc1ccc(C(=O)c2sc3nc4c(cc3c2N)CCCC4)cc1OC : is its growth no less than 30%?
Not satisfied

Hi team, for COc1ccc(S(=O)(=O)NCCCNc2cc(-c3c(-c4cccc(OC)c4)nc4sccn34)ccn2)cc1 , is the recorded growth at or above 30%?
Not satisfied

Could you tell me if the measured growth of Cc1cc(-c2nc3ccccc3s2)ccc1NC(=O)COc1ccc(Cl)cc1 reaches 30% or more?
Satisfied

Decide: is the reported value of growth for CS(CCCCN=C=S)=NC(=O)c1c(F)c(F)c(F)c(F)c1F (stereo not drawn) equal to or greater than 30%?
Satisfied

Could you please find out whether CC(=O)Oc1cc2cnc3c4cc(OC(C)=O)c(OC(C)=O)cc4ccc3c2cc1OC(C)=O has growth that meets 30% or exceeds it?
Not satisfied

Evaluate CC(=O)N1CC(Nc2ccc(OC(F)(F)F)cc2)=CC1=O : growth at minimum 30%?
Not satisfied

Hello, I need to know if COc1c(C2CC(=O)Nc3c2cnn3Cc2ccco2)cc2c(c1OC)OCO2 (stereo not drawn) has measured growth not below 30%. Thanks!
Not satisfied

Has CCOC(=O)CC(=O)c1c(C)cc(C)cc1C a recorded growth greater than or equal to 30%?
Satisfied

Answer whether growth of O=C([C@@H](COCc1ccccc1)N1C(=O)[C@@H](N2C(=O)OC[C@@H]2c2ccccc2)[C@H]1/C=C/c1ccccc1)N1CCC(CCN2CCCCC2)CC1 is greater than or equal to 30%.
Satisfied

Identify whether the reported growth of the following molecule is 30% or greater: O=C(O)c1cn(C2CC2)c2cc(N3CCN(Cc4nc5c(cnn5-c5ccc([N+](=O)[O-])cc5)c(=O)[nH]4)CC3)c(F)cc2c1=O
Satisfied

Form field: growth at least 30%? Entry: CCOC(=O)c1cnc2ccc(OC)cc2c1Nc1cccc(S(=O)(=O)NC)c1
Satisfied

Is growth at least 30%? Consider Nc1ccc(Nc2nccc(-c3ccc4ccccc4c3)n2)cc1
Not satisfied

Given C=C1CCC2C3(C)COC(C)(C)OC3CCC2(C)C1C/C=C1/C(=O)OCC1OC(C)=O (stereo not drawn) , state whether its growth is at least 30%.
Not satisfied

Does the molecule CC[C@@H](C)OC(=O)c1nn(C(C)=O)c2ccccc12 have recorded growth that is 30% or more?
Satisfied

State whether the measured growth reaches 30%, counting equality as reaching it, for O=c1c(/C=C/c2ccco2)nnc(SCCN2CCOCC2)n1/N=C/c1ccc([N+](=O)[O-])cc1
Satisfied

In plain terms: is recorded growth at least 30% for Cc1cc(N/N=C/c2nc(-c3ccc(Cl)cc3)oc2C)c2cc(Br)ccc2n1 ?
Not satisfied
